- System: IGROV-1
- PROTOCOL DESCRIPTION: NCI tumour cell line growth inhibition, 48 h
Calls of active or inactive are those of the source. No stated cut-off is given here; in the data, active = GI50 up to about 1.1 µM and inactive = higher.
Below is a list of entries, each paired with its recorded GI50 value.

Guide cases for GI50, answers given:
COMPOUND	RESULT
Clc1ccc(-c2nnc(C34CC5CC(CC(C5)C3)C4)o2)cc1	> 100 µM (inactive)
O=C(O)CN1CCNCCNCC1	> 100 µM (inactive)
C[C@]1(S(=O)(=O)c2ccccc2)C[C@H]2N(Cc3ccccc3)[C@@H]1CCC21OCCO1	> 100 µM (inactive)
CCOC(=O)C(=O)C(=O)NN(C)C1=NCCN1	> 100 µM (inactive)
O=C1C(Cl)=C(Cl)C(Cl)(Cl)C(Cl)C1(Cl)Cl (configuration not stated)	17 µM (inactive)

Determine from records and report GI50 for CC1=C(/C=C/C2=CC(=C\C(=O)O)/CC(C3=C(C)CCCC3(C)C)C2)C(C)(C)CCC1 (configuration not stated)
13.2 µM (inactive)

Determine from records and report GI50 for CCCC[C@@H](C)/C=C1\CN2CCC[C@H]2[C@@](C)(O)[C@@H]1O
51.6 µM (inactive)

Determine from records and report GI50 for CCCCC(=O)c1c(O)nc2sccn2c1=O
> 10 µM (inactive)

Determine from records and report GI50 for C[C@]12CC[C@H]3[C@@H](CCC4=CC(=O)CC[C@@]43C)[C@@H]1CC[C@@H]2C(=O)Nc1ccc([N+](=O)[O-])c(C(F)(F)F)c1
22.8 µM (inactive)

Determine from records and report GI50 for Cc1ccsc1/C=N/Nc1nc2ccccc2s1
11 µM (inactive)

Determine from records and report GI50 for O=C1NC2(CCCC2)C2CCCCC12O (configuration not stated)
> 100 µM (inactive)

This collection of values is drawn from ChEMBL document CHEMBL1201862.
